Data credit: the supplement of paper PMC13380429

The compounds listed here are annotated with their cell viability.
- System: Caco-2
- testProtocol: cell viability relative to DMSO; higher = less toxic
- reportedConditions: 72 h; 1000 nM
State the answer as a number, implicitly in %.

Below, each entry is followed by its recorded cell viability result.
• Cc1[nH]c2ccc(Cl)cc2c1C1=CCNCC1 = 97
• COc1ccc(Cn2ccc3ccc(C(=O)NO)cc32)cc1 = 101
• Cc1cc(C(=O)O)sc1C(N)C(=O)O (centres undefined) = 99.4
• CN1CCN(c2ncc(-c3cc(Cl)cc(Cl)c3Cl)c(N)n2)CC1 = 91.8
• Cc1cc2c(OCC(CNC(C)(C)C)OC(=O)c3ccccc3)cccc2[nH]1 (centres undefined) = 102
• COc1cc2ncc(-c3ccccc3)nc2cc1OC = 96.2
• CNC(=O)[C@@H](Cc1ccccc1)N(C)C(=O)[C@@H](Cc1ccc2ccccc2c1)N(C)C(=O)/C=C/CC(C)(C)N = 95.4
• CCCCC1=NC2(CCCC2)C(=O)N1Cc1ccc(-c2ccccc2-c2nnn[nH]2)cc1 = 104

Would you kindly look at the next entry?
Fill in the blank: the reported cell viability of CC(C(=O)O)c1ccc(N2Cc3ccccc3C2=O)cc1 (centres undefined) is ____.
96.5
